Origin of values: patent US5004756A

- Test system: V79/ADM
- protocol-notes: Colony formation (proliferation) inhibition, ADM-resistant Chinese hamster cells (A-I Part 1)
- Assay type: cell-based
- condition-description: Cricetulus griseus, 216 h
*1 amine or outer side, *2 acyl side, *3 side chain or, on linkers, in order; H or OH if unused. Where a SMILES comes first, the peptide text is derived from it. Bridges are numbered along the chain shown (N, C = ends). Roman numbers before positions name the chains, in order. [ ]: non-standard residue; d: D form. Actinocin(9to1) = Cc1c2oc3c(C)ccc(C(=O)[*:1])c3nc-2c(C(=O)[*:2])c(N)c1=O; NMeV = CN[C@H](C(=O)O)C(C)C; Sar = CNCC(=O)O
value-kind: IC50 (µg/mL)

| molecule | unit-descriptor | measured-number |
| --- | --- | --- |
| CC[C@@]1(O)C[C@H](O[C@H]2C[C@H](N(C)C)[C@H](O[C@H]3C[C@H](O)[C@H](O[C@H]4CCC(=O)[C@H](C)O4)[C@H](C)O3)[C@H](C)O2)c2c(cc3c(c2O)C(=O)c2c(O)cccc2C3=O)[C@H]1C(=O)OC | µg/mL | 0.27 |
| CN(Cc1cnc2nc(N)nc(N)c2n1)c1ccc(C(=O)N[C@@H](CCC(=O)O)C(=O)O)cc1 [MTX, methotrexate] | µg/mL | 0.0078 |
| Cc1c2oc3c(C)ccc(C(=O)N[C@@H]4C(=O)N[C@H](C(C)C)C(=O)N5CCC[C@H]5C(=O)N(C)CC(=O)N(C)[C@@H](C(C)C)C(=O)O[C@@H]4C)c3nc-2c(C(=O)N[C@@H]2C(=O)N[C@H](C(C)C)C(=O)N3CCC[C@H]3C(=O)N(C)CC(=O)N(C)[C@@H](C(C)C)C(=O)O[C@@H]2C)c(N)c1=O [ACD, actinomycin D] (I: T[dV]P[Sar][NMeV] / II: T[dV]P[Sar][NMeV]; ester I:1-I:C, II:1-II:C; linker I:N-II:N via Actinocin(9to1)) | µg/mL | 0.28 |
| COc1cccc2c1C(=O)c1c(O)c3c(c(O)c1C2=O)C[C@@](O)(C(=O)CO)C[C@@H]3O[C@H]1C[C@H](N)[C@H](O)[C@H](C)O1 | µg/mL | 8.8 |
